assay_readout: melting point (°C)

Solved cases (2 shown):
Incoming: For the molecule C1=CC2(CCCCC2)Nc2ccc(Oc3ccccc3)cc21.Cl , what melting point is on record?
Outgoing: 176

Incoming: For the molecule CC(C)(C)C(=O)Oc1ccc2c(c1)C=CC1(CCCCC1)N2.Cl , what melting point is on record?
Outgoing: 180

1. COc1ccc2c(c1)C=CC1(CCCCC1)N2.Cl
2. CC(C)(C)Oc1ccc2c(c1)C=CC1(CCCCC1)N2.Cl
Incoming: For the pair 1 and 2 , which entry has the numerically smaller recorded melting point? Selection: enter the item's label.
Outgoing: 2
(2: 132 °C, 1: 191 °C)

###

The entries below come with measured melting point values attached.

Solved cases (5 shown):
Incoming: For the molecule CCOc1c(C)c(C)c2c(c1C)C=CC1(CCCCC1)N2.Cl , what melting point is on record?
Outgoing: 158 to 161 °C

Incoming: For the molecule CCOc1cccc2c1NC1(C=C2)CCCCC1.Cl , what melting point is on record?
Outgoing: 154 to 155 °C

Incoming: For the molecule CCOc1c(C)c(C)c2c(c1C)CCC1(CCCCC1)N2.Cl , what melting point is on record?
Outgoing: 192 to 198 °C (dec.)

Incoming: For the molecule CCOc1c(C(C)C)cc2c(c1C(C)C)CCC(C)(C)N2.Cl , what melting point is on record?
Outgoing: 227 to 230 °C

Incoming: For the molecule CCOc1c(C(C)C)cc2c(c1C(C)C)C=CC1(CCCCC1)N2.Cl , what melting point is on record?
Outgoing: 166 to 169 °C (dec.)

***
Incoming: For the molecule CCOc1c(C)cc2c(c1C)C=CC1(CCCCC1)N2.Cl , what melting point is on record?
Outgoing: 175 to 180 °C

Cited source: patent US6350759B1
